target: T1, γδ T cell receptor on human γδ T cells (human); assay: flow cytometry DRC binding 37 C, human γδ T cells
T1 construct: whole, on cells; Target is the γδ TCR on a mixed population of human γδ T cells; also called AG000003021 (γδ T cells)
Each entry below carries its recorded Max. Activity.
// note: answer is a bare numeric in fold over background

Worked set:
binder: VG9B112 (antibody, human IgG1, kappa, V domains shown, IgG1, kappa; specificity column: g/d constant) VH: QVQLQQSGPGLVKPSQTLSLTCAISGDSVSSNSAAWNWIRQSPSRGLEWLGGTYYRSKWFNNYAVSVKSRITINPDTSTNQFSLQLNSVTPADTAVYYCARGEWGLRDAFDIWGQGTMVTVSS VL: DIQMTQSPSFLSASVGDRVIITCRASQGIHSYLAWYQQKPGKVPKLLIYVASTLQSGVPSRFSGSGSGTEFTLTISSLQPEDFATYYCQQLNSYPWTFGQGTKLEIKR
test.value: 1990

binder: VG9B379 (antibody, human IgG1, lambda, V domains shown, IgG1, lambda; specificity column: g/d constant) VH: EVQLVQSGPEVKKPGASVKVSCKASGYTFTGDYIHWVRQVPGQGLEWMGWINPNSGGTNYAQKFQGRVTMTRDTSISTAFMELSRLRSDDTAVYYCAREGGVAPAAPDAFDIWGQGTMVTVSS VL: SSELTQDPAVSVALGQTVRITCQGDSLRSYYARWYQQKPGQAPVVVIYGKNNRPSGIPDRFSGSSSGNTASLTITGAQAEDEADYYCNSRDSSGNHRVFGGGTKLTVLG
test.value: 1460

binder: VG9B136 (antibody, human IgG1, kappa, V domains shown, IgG1, kappa; specificity column: g/d constant) VH: QVQLQQSGPGLVKPSQTLSLTCAISGDSVSSNRAAWNWIRQSPSKGLEWLGRTYYRSKWYNEYAASVKSRMSINPDTSKNQFSLQLNSVTPEDTALYYCARDLWELREACDIWGQGTMVTVSS VL: DIVMTQSPSFLSTFVGDRVTITCRASQGISSYLAWYQQKPGKVPKLLIYVASTLQSGVPSRFSGSGSGTEFTLTISSLQPEDFATYYCQQLNSYPFTFGPGTKVDIKR
test.value: 2680

binder: VG9B386 (antibody, human IgG1, kappa, V domains shown, IgG1, kappa; specificity column: g/d constant) VH: EVQLVESGGGLVKPGGSLRLSCAASGFTFSSYSMIWVRQAPGKGLEWVSSIGSSSTYIYYADSVRGRFTISRDNAKTSLYLQMNSLRAEDTAMYFCARDGETGGFDYWGQGILVTVSS VL: EIVMTQSPGTLSLSPGERATLSCRASQSISRSYLAWYQQKPGQPPRLLIYGPSNRATGIPDRFSASGSGTDFTLTNSRLEPEDFAVYYCQQYGSLPLTFGGGTKVEIKR
test.value: 2110

# next binder below
Fill in: Max. Activity of VG9B387 (antibody, human IgG1, lambda, V domains shown, IgG1, lambda; specificity column: g/d constant) VH: EVQLVESGAEVKKPGASVKVSCKASGFTFTGYYLQWVRQAPGQGLEWMGWINPNSGYTDYAQRFQDRVTMTRDTSINTAYMELSRLRSDDTAVYYCARLDDAFDVWGQGTMVTVSS VL: SYELTQDPAVSVALGQTVRITCQGDSLRNYYAIWYQQKPGQAPVLVIFGKNNRPSGIPDRFSGSSSGTTASLTITGTQAEDEADYYCNSRDSSGNHWVFGGGTKLTVLG is ___
1970
